binders and their reported ELISA
experimentalTarget: T1, IL-11 (UniProt P20809 22-199, limits assumed)
T1 construct: also called IL-11 protein; IL-11 antigen
T1 sequence (looked up): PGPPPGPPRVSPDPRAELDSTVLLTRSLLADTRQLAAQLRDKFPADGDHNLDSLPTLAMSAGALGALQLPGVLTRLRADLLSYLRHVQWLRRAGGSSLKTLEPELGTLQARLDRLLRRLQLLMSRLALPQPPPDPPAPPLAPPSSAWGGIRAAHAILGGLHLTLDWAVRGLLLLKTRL
assayProcedure: phage ELISA on IL-11
The response must contain the number and no unit.

Below are worked cases with known answers.
binder	ELISA
1A10 (scFv) scFv: QVQLVQSGAEVKKPGASVKVSCKASDYTFTNYWLGWVRQAPGQGLEWMGHIYPGGGYTNYNEKFKGRVTMTRDTSTSTVYMELSSLRSEDTAVYYCARVSSGNDALDFWGQGTLVTVSSGGGGSGGGGSGGGGSEIVLTQSPATLSLSPGERATLSCRASESVDEYGISFMNWFQQKPGQAPRLLIYSASNQGSGIPARFSGSGSGTDFTLTISSLEPEDFAVYFCQQSKEQPWTFGGGTKLEIK	2.06
2E7 (scFv, As m119: scFv on phage) scFv: QVQLVQSGAEVKKPGASVKVSCKASDYTFTNYWLGWVRQAPGQGLEWMGHIYPSGGYTNYNEKFKGRVTMTRDTSTSTVYMELSSLRSEDTAVYYCARVSSGNDALDFWGQGTLVTVSSGGGGSGGGGSGGGGSEIVLTQSPATLSLSPGERATLSCRASESVDEYGISFMNWFQQKPGQAPRLLIYSASNQGSGIPARFSGSGSGTDFTLTISSLEPEDFAVYFCQQSKELPWTFGGGTKLEIK	2.19

IN: Which ELISA is listed for 1G11 (scFv, As m119; the printed mutations are the same as those of 1F12) scFv: QVQLVQSGAEVKKPGASVKVSCKASDYTFTNYWLGWVRQAPGQGLEWMGHIYPGGGYTNYNEKFKGRVTMTRDTSTSTVYMELSSLRSEDTAVYYCARVSSGNDALDFWGQGTLVTVSSGGGGSGGGGSGGGGSEIVLTQSPATLSLSPGERATLSCRASESVDEYGISFMNWFQQKPGQAPRLLIYSASNQASGIPARFSGSGSGTDFTLTISSLEPEDFAVYFCQQSKELPWTFGGGTKLEIK ?
OUT: 2.58
